- test_protocol: activity coefficient (dimensionless); of the first substance listed, at infinite dilution; xn = mol fraction of the nth substance listed
- cond: 343.1 K; 101.3 kPa; Liquid; Chromatography; x1 = 0
Quick reference for activity coefficient among some compounds
value_kind: activity coefficient

> print(dat)
                                   compound  number
1  C#CCCCC [1-hexyne] + CCn1cc[n+](C)c1.N#C[B-](C#N)(C#N)C#N    3.58
2  CCO [ethanol] + CCn1cc[n+](C)c1.N#C[B-](C#N)(C#N)C#N    1.16
3  CO [methanol] + CCn1cc[n+](C)c1.N#C[B-](C#N)(C#N)C#N    0.85
4  C=CCCCCCCCC [1-decene] + CCn1cc[n+](C)c1.N#C[B-](C#N)(C#N)C#N    43.4
5  C=CCCCC [hex-1-ene] + CCn1cc[n+](C)c1.N#C[B-](C#N)(C#N)C#N    6.27
6  CCCO [propan-1-ol] + CCn1cc[n+](C)c1.N#C[B-](C#N)(C#N)C#N    1.46
7  C#CCCC [1-pentyne] + CCn1cc[n+](C)c1.N#C[B-](C#N)(C#N)C#N    2.29

###

- test_protocol: activity coefficient (dimensionless); of the first substance listed, at infinite dilution; xn = mol fraction of the nth substance listed
- cond: 313.3 K; 101.3 kPa; Liquid; Chromatography; x1 = 0
So basically: is activity coefficient under 4? Then True. Not under? Then False.

> print(dat)
                                   compound    cat
1  Cc1ccccc1C [1,2-dimethylbenzene] + CCn1cc[n+](C)c1.N#C[B-](C#N)(C#N)C#N   True
2  C#CCCCCCC [1-octyne] + CCn1cc[n+](C)c1.N#C[B-](C#N)(C#N)C#N  False
3  CCCO [propan-1-ol] + CCn1cc[n+](C)c1.N#C[B-](C#N)(C#N)C#N   True
4  C#CCCCCC [1-heptyne] + CCn1cc[n+](C)c1.N#C[B-](C#N)(C#N)C#N  False

###

Quick reference for activity coefficient among some molecules
- test_protocol: activity coefficient (dimensionless); of the first substance listed, at infinite dilution; xn = mol fraction of the nth substance listed
- cond: 313.4 K; 101.3 kPa; Liquid; Chromatography; x1 = 0
value_kind: activity coefficient

> print(dat)
                                   molecule  number
1  C1CCCCC1 [cyclohexane] + CCn1cc[n+](C)c1.N#C[B-](C#N)(C#N)C#N    12.4
2  CCCCC [pentane] + CCn1cc[n+](C)c1.N#C[B-](C#N)(C#N)C#N    8.21
3  CCCCCC [hexane] + CCn1cc[n+](C)c1.N#C[B-](C#N)(C#N)C#N    17.4
4  CCCCCCCC [octane] + CCn1cc[n+](C)c1.N#C[B-](C#N)(C#N)C#N    52.5
5  CCCCCCCCC [nonane] + CCn1cc[n+](C)c1.N#C[B-](C#N)(C#N)C#N    78.1
6  CC1CCCCC1 [methylcyclohexane] + CCn1cc[n+](C)c1.N#C[B-](C#N)(C#N)C#N    18.9
7  CCCCCCC [heptane] + CCn1cc[n+](C)c1.N#C[B-](C#N)(C#N)C#N    32.2
